# MEASURED ON: human topoisomerase IIα (rhTopoIIα ATPase domain) (Homo sapiens)
# Construct: ATPase domain (45 kDa, recombinant, pET28b-hTopoIIα-ATPase)
# Sequence (P11388 29-428 limits assumed): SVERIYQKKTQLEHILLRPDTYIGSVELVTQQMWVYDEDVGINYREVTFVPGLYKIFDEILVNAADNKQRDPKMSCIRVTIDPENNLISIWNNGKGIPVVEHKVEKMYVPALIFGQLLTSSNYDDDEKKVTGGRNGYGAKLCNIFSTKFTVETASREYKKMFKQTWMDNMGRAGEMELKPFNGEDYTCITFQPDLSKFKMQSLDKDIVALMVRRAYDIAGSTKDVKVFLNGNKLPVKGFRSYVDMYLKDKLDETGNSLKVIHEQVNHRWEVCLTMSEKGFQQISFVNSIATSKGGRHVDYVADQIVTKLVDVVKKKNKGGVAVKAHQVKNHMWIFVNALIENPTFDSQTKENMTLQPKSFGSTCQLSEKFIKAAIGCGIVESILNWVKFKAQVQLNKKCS
# ASSAY: ADP-Glo ATPase assay with purified recombinant ATPase domain
# CONDITION SET: read-out: IC50 against rhTopoIIα ATPase domain
PROPERTY LABEL: IC50 (nM)

- COMPOUND: "Cc1ccc2c(c1CCC(O)C(C)(C)O)C(=O)C(=O)C(C(C)C)=C2 (centres unmarked)"
  VALUE REPORTED: 326
- COMPOUND: "COc1cc(O)c(C(=O)/C=C/c2cc(OC)c(OC)c(OC)c2)c(OC)c1"
  VALUE REPORTED: 7.5

Sourced from paper PMC6225485
